assay: Phase I dose-escalating study, plasma pharmacokinetics in patients with solid tumor; format: in vivo, human; conditions: human, plasma, 25 mg, 25 mg QD (4/1), C2D28 (n = 5), plasma; read-out: tmax, mean (% CV)
Recorded metric: Tmax

INSERT INTO measurements (smiles_input, assay_value) VALUES
  ('Cc1[nH]c(/C=C2\C(=O)Nc3ccc(F)cc32)c(C)c1C(=O)NC[C@H](O)CN1CCOCC1', '3.2 h');

---

experiment: Phase I dose-escalating study, plasma pharmacokinetics in patients with solid tumor; assay type: in vivo, human; conditions: human, plasma, 150 mg, 150 mg QD (4/1), C2D28 (n = 4), plasma; read-out: t½, mean (% CV) (converted)
Recorded metric: half-life

INSERT INTO results (smiles_input, recorded_metric, assay_value) VALUES
  ('Cc1[nH]c(/C=C2\C(=O)Nc3ccc(F)cc32)c(C)c1C(=O)NC[C@H](O)CN1CCOCC1', 'half-life', '792 min');
